Reference source for all entries: PubChem BioAssay (NCI)

# Tested on: EKVX NSCLC
# assayInfo: NCI tumour cell line growth inhibition, 48 h
readoutKind: TGI

Examples with answers:
molecule="C=C1C(=O)O[C@H]2[C@H]1CC/C(COC(=O)NCC(C)c1ccc(CC(C)C)cc1)=C\\CC[C@@]1(C)O[C@@H]21 (some centres undefined)" recordedvalue="7.95 µM"
molecule="CCOC(=O)/C(O)=C1\\C(=O)N(C)C(=O)C1c1cccc(OC)c1 (centres undefined)" recordedvalue="> 100 µM"
molecule="CC(=O)O[C@H]1CCc2c(cc(N)c3c2C(=O)C[C@]2(C)C([C@H](C)CCCC(C)C)CCC32C)C1(C)C (some centres undefined)" recordedvalue="> 100 µM"
molecule="COc1ccc(C2c3cc4c(cc3OC(N3CCOCC3)C2C)OCO4)c(OC)c1OC (centres undefined)" recordedvalue="> 100 µM"
molecule="CC1(C)[C@H]2CC[C@@]13C(=O)N1C(=O)O[C@@H]([C@H]1Cl)C(Cl)(COCc1ccccc1)C(=O)OCCO[C@H]3C2 (some centres undefined)" recordedvalue="> 100 µM"

Please report TGI for every entry that follows.
1. Cc1cc(I)cc(CN(C)CCCN2CCCC2)c1O
2. CNC(=O)CCCNC(=O)CCCC(=O)N(C)C
3. CCOC(=O)c1cc2c3c(c(O)c(OC)c2s1)N(C(=O)c1cc2c4c(c(O)c(OC)c2s1)N(C(C)=O)CC4)CC3
4. Cc1c2c(OCC3CCCCO3)nn(C)c(=O)c2c(C)n1-c1ccccc1 (centres undefined)

Return:
1. > 100 µM
2. > 100 µM
3. > 100 µM
4. 33.2 µM

----------
# System: HOP-92 NSCLC
# assayInfo: NCI tumour cell line growth inhibition, 48 h
readoutKind: log10 of TGI (log10 of the value in µM)
Answers are given as log10 of TGI in µM.

molecule=[O-]/[N+](=C\c1ccccc1OC(=S)S)c1ccc(Cl)cc1 readoutkind="log10 of TGI" recordedvalue=1.26
molecule=Cn1c2c(c3ccccc31)CCN(CCN1CCN(c3cccc(Cl)c3)CC1)C2=O readoutkind="log10 of TGI" recordedvalue=1.89
molecule=CCOC(=O)/C(C#N)=C\C=C(/Cl)c1ccc(Cl)cc1 readoutkind="log10 of TGI" recordedvalue=1.67
molecule="CC(=O)OC1CCC2C3CCc4c(C)ccc(OS(=O)(=O)c5ccccc5)c4C3CCC12C (stereo unspecified)" readoutkind="log10 of TGI" recordedvalue=1.58

Hello, I would appreciate it if you could give log10 of TGI for each entry below.
1. Oc1ccccc1-c1nn(CNc2ccccc2Cl)c(=S)o1
2. C=C1C(=O)O[C@H]2[C@H]1CC/C(COC(=O)NCC(C)c1ccc(CC(C)C)cc1)=C\CC[C@@]1(C)O[C@@H]21 (stereo partly specified)

Return:
1.82
0.18

----------
# Tested on: TK-10 renal
# assayInfo: NCI tumour cell line growth inhibition, 48 h
Give TGI for every item shown.

# example entries with known answers
compound=CC(C)(C)OC(=O)NCCCCCCCn1c2c(c3ccccc3c1=O)C(=O)c1ccccc1-2 recordedvalue="> 100 µM"
compound=Cn1c2ccccc2c(=O)c2c(O)cc3c(c21)C=CC1(CCCCC1)O3 recordedvalue="> 10 µM"
compound=O=c1oc2ccccc2[n+]([O-])c1-c1ccccc1 recordedvalue="> 100 µM"
compound=COc1ccc(-c2cc(-c3ccccc3)[nH]c(=S)c2C#N)cc1 recordedvalue="> 100 µM"
compound="FC(F)(F)c1cc(C2SCc3nc4ccccc4n32)cc(C(F)(F)F)c1 (stereo not drawn)" recordedvalue="> 100 µM"
compound="C[N+](C)(C)CC1CCCCC1O (stereo not drawn)" recordedvalue="> 100 µM"
compound=C(=N\Nc1nnn(Cc2ccccc2)n1)/c1ccccc1 recordedvalue="> 100 µM"
compound=CCCCn1c(-c2ccc([N+](=O)[O-])cc2)cs/c1=N/N=C1\C(=O)Nc2ccc(Br)cc21 recordedvalue="34 µM"
compound=Cc1cc(I)cc(CN(C)CCCN2CCCC2)c1O recordedvalue="36 µM"
compound=CNC(=O)c1nn(C)c2c1C(C)(C)Cc1cnc(Nc3ccc(N4CCN(C)CC4)cc3)nc1-2 recordedvalue="> 10 µM"

Look at each compound and report its TGI.
1. CC(=O)OC1C(COC(=O)c2ccccc2)OC(Nc2ncc(-c3ccc(Br)cc3)s2)C(OC(=O)c2ccccc2)C1OC(=O)c1ccccc1 (stereo not drawn)
2. O=C(O)[C@H](c1ccccc1)[C@@H](C(=O)O)c1ccccc1

Return:
1. > 100 µM
2. > 100 µM

I'm hoping you can list TGI for every compound here, please.
1. NC(=S)NN/C=C(\C=Nc1ccccc1)[N+](=O)[O-]
2. O=c1c(F)cn(Cc2ccccc2CCl)c(=O)n1Cc1ccccc1CCl
3. CC(=O)OC(Cn1cncn1)(Cn1cncn1)c1ccc(Cl)cc1Cl

Return:
> 100 µM
5.44 µM
> 100 µM

Would you be so kind as to report TGI for each listed record?
1. C/C(=N/NC(=O)C[N+](C)(C)C)C(CN(C)C)C(=O)Nc1ccccc1 (stereo not drawn)
2. N/N=C1\C(=O)N(CCc2ccccc2)C(=O)C1C(=O)NCCc1ccccc1 (stereo not drawn)
3. O=C1CCCCN1CCCCC#Cc1cccc(C#Cc2cccnc2)c1
4. O=C(Nc1ccc(Cl)c(Cl)c1)NS(=O)(=O)c1cnccc1Oc1ccc(F)cc1
5. C[C@]12CC[C@@H]3c4cc(I)c(O)cc4CC[C@H]3[C@@H]1CC[C@@H]2O
6. O=C1c2ccccc2NC(=S)[C@@H]2CCCN12

Return:
["> 100 µM", "> 100 µM", "> 100 µM", "21.6 µM", "27.6 µM", "> 100 µM"]

List TGI for every entry below, keeping the order given.
1. C=CC(OCC)(OCC)OCC
2. CCOC(=O)C#Cc1ccccc1
3. COc1ccc(NC(=S)NC(=O)c2ccc3c(c2)Sc2ccccc2O3)c([N+](=O)[O-])c1

Return:
["> 100 µM", "59.9 µM", "36.9 µM"]

Please report TGI for every entry that follows.
1. COc1cc2ccc1OCc1cccc(n1)COc1ccc(cc1OC)C=Nc1ccc(cc1)N=C2
2. CN(C)CCNC(=O)Cn1ccc(=O)c2c([N+](=O)[O-])cccc21
3. O=S(=O)(NCCCNc1nccc(-c2c(-c3ccc(F)cc3)nc3sccn23)n1)c1ccc2ccccc2c1
4. CC(=O)c1ccc2c(c1)CC1(C2)Cc2ccccc2C1=O (stereo not drawn)
5. O=C(O)[C@@H](Cc1ccc2ccccc2c1)NC(=O)n1c2ccccc2c2ccccc21

Return:
["> 100 µM", "> 100 µM", "> 100 µM", "91.4 µM", "> 100 µM"]

Batch of 4 compounds: report TGI for each.
1. CN(C)C(=O)O[C@H]1CN[C@H](C#Cc2cc3ncnc(Nc4ccc(OCc5cccc(F)c5)c(Cl)c4)c3s2)C1
2. CC(=O)N1CCC2(c3ccccc3N(C(C)=O)C2c2ccc(O)cc2)C1C(=O)O (stereo not drawn)
3. CC(=O)OCC1OC(N2C(=O)C(=O)c3ccccc32)C(OC(C)=O)C(OC(C)=O)C1OC(C)=O (stereo not drawn)
4. CCOP(=O)(/C=C\n1ccc(N)nc1=O)OCC

Return:
1: > 17.4 µM; 2: > 100 µM; 3: > 100 µM; 4: > 100 µM

# per-item lookup of TGI; items listed below
1. CC12CCCC3(CC(=O)C(C)(C)C3C(=O)C1)C2 (stereo not drawn)
2. O=C(c1ccncc1)C1C(=O)c2ccccc2C1C1(O)c2ccccc2CC1C(O)c1ccncc1 (stereo not drawn)

Return:
1. > 100 µM
2. > 100 µM

Answer for every listed entry: what is its TGI? The entries follow.
1. C=C1C(O)CC[C@]2(C)C1C1OC(C)(C)O[C@]13CC(=O)C(C)=C([C@H]1OC(C)(C)OC12)C3(C)C (stereo partly drawn)
2. NS(=O)(=O)c1cccc(NC(=S)NC(=O)Nc2ccc(Cl)c(Cl)c2)c1
3. CCON1CC(C(=O)OC)=C(O)C1=O
4. N#Cc1nc(C2CCC2)oc1N
5. OCc1ccc2c(c1)CC1(Cc3ccc(/C=N/O)cc3C1)C2 (stereo not drawn)
6. Cc1c2c(OCC3CCCCO3)nn(C)c(=O)c2c(C)n1-c1ccccc1 (stereo not drawn)

Return:
> 100 µM
> 100 µM
> 100 µM
> 100 µM
> 100 µM
45.4 µM

Fill in TGI for each of the 2 compounds listed.
1. O=c1cc(-c2ccccc2)oc2c(-c3cc(Cl)cc4c(=O)cc(-c5ccccc5)oc34)cc(Cl)cc12
2. O=C(N/N=C/c1ccccc1O)c1ccccc1

Return:
["> 100 µM", "> 100 µM"]

----------
# Tested on: SNB-75 CNS
# assayInfo: NCI tumour cell line growth inhibition, 48 h
Answer each item with its documented TGI.

compound=CN(C)CCNC(=O)c1cccc2nc(-c3ccccc3)oc12 measuredon="SNB-75 CNS" recordedvalue="> 100 µM"
compound="N/N=C1\\C(=O)N(CCc2ccccc2)C(=O)C1C(=O)NCCc1ccccc1 (stereo unspecified)" measuredon="SNB-75 CNS" recordedvalue="> 100 µM"
compound="CC1(C)CC2C(=O)c3ccccc3NC2c2ccccc21 (stereo unspecified)" measuredon="SNB-75 CNS" recordedvalue="> 100 µM"
compound=CCCCCCCCCc1nn2c(Cc3ccccc3)nnc2s1 measuredon="SNB-75 CNS" recordedvalue="65.4 µM"

Please look at the items below and tell me TGI for each one, in order.
1. CN(C)CCC(=O)/C=C\c1ccccc1
2. COc1nc(C#CC(C)(C)C)nc(OC)n1
3. O=c1[nH]nc(Cc2ccccc2)n1/N=C/c1ccncc1

Return:
1: > 100 µM; 2: > 100 µM; 3: > 100 µM

I'm hoping you can list TGI for every compound here, please.
1. COc1ccc(-c2cc(-c3ccccc3)[nH]c(=S)c2C#N)cc1
2. CC(C)(C)OC(=O)NCCCCCCCn1c2c(c3ccccc3c1=O)C(=O)c1ccccc1-2
3. COc1ccc(/C(=N\NC(=S)NN)C(c2ccc(OC)cc2)C2C(=O)Oc3ccccc32)cc1 (stereo unspecified)
4. COc1ccc(C(=O)c2ccc([As]=O)cc2)cc1 (stereo unspecified)

Return:
1: 88.1 µM; 2: 49.7 µM; 3: > 100 µM; 4: 0.417 µM
